Tested on: zebrafish embryos
Conditions: 1 µM screening
measured.parameter: Effect on ISV area

Qu. Report Effect on ISV area, nothing else, for this compound: NC(=O)c1ncn([C@@H]2O[C@H](CO)[C@@H](O)[C@H]2O)n1 [Ribavirin]
Ans. mildly reduced

Qu. Report Effect on ISV area, nothing else, for this compound: COc1ccc(CCN2CCC(Nc3nc4ccccc4n3Cc3ccc(F)cc3)CC2)cc1 [Astemizole]
Ans. negative effects

Qu. Report Effect on ISV area, nothing else, for this compound: O=c1[nH]c2ccccc2n1C1CCN(CCCC(c2ccc(F)cc2)c2ccc(F)cc2)CC1 [Pimozide]
Ans. negative effects

Qu. Report Effect on ISV area, nothing else, for this compound: CCOC(=O)c1c(CSc2ccccc2)n(C)c2cc(Br)c(O)c(CN(C)C)c12 [Umifenovir]
Ans. mildly reduced

====

Tested on: zebrafish embryos
Conditions: 1 µM screening
measured.parameter: Effect on body length

Qu. Report Effect on body length, nothing else, for this compound: Cc1ccc(C(=O)Nc2ccc(CN3CCN(C)CC3)c(C(F)(F)F)c2)cc1C#Cc1cnc2cccnn12
Ans. highest reduction

Qu. Report Effect on body length, nothing else, for this compound: O=c1[nH]c2ccccc2n1C1CCN(CCCC(c2ccc(F)cc2)c2ccc(F)cc2)CC1 [Pimozide]
Ans. highest reduction

Qu. Report Effect on body length, nothing else, for this compound: COc1ccc(CCN2CCC(Nc3nc4ccccc4n3Cc3ccc(F)cc3)CC2)cc1
Ans. highest reduction
